system: Hepatitis C virus; assay: Antiviral activity against HCV 1b infected in human HuH7 cells assessed as inhibition of viral sub-genomic replication by EG(delta-4AB)SEAP reporter protein assay; type: functional, organism-based, Hepacivirus hominis; conditions: genotype 1b, Huh-7
Item-by-item account of pEC50
When answering, recall that pEC50 equals minus log10 of the concentration in mol/L, and write that number alone.

Reference set, count: 2
N#Cc1ccc(C(=O)NC(=S)N2CCc3c(OCCCCCOc4ccc(Cl)cc4)cccc32)cc1: 6.29
N#Cc1cccc(C(=O)NC(=S)N2CCc3c(OCCCCCOc4ccc(Cl)cc4)cccc32)c1: 6.24

# pEC50 (molecule: "O=C(NC(=S)N1CCc2c(OCCCCCOc3ccc(Cl)cc3)cccc21)c1ccoc1" ) is 5.76

# pEC50 (molecule: "O=C(NC(=S)N1CCc2c(OCCCCCOc3ccc(Cl)cc3)cccc21)c1ccccc1[N+](=O)[O-]" ) is 5.78

# pEC50 (molecule: "O=C(NC(=S)N1CCc2cc(OCc3ccccc3)ccc21)c1ccccc1" ) is 5.32

# pEC50 (molecule: "NC(=S)Nc1cccc(Oc2ccccc2)c1" ) is 6.31

# pEC50 (molecule: "O=C(NC(=S)N1CCc2c(OCCCCCOc3ccc(Cl)cc3)cccc21)c1cc2ccccc2s1" ) is 5.96

# pEC50 (molecule: "O=C(NC(=S)N1CCc2c(OCCCCCOc3ccc(Cl)cc3)cccc21)c1cccs1" ) is 6.18

# pEC50 (molecule: "O=C(NC(=S)N1CCc2c(OCCCCCOc3ccc(Cl)cc3)cccc21)c1ccc2ccccc2c1" ) is 5.67

# pEC50 (molecule: "O=C(NC(=S)N1CCc2c(OCCCCCOc3ccc(Cl)cc3)cccc21)c1ccc(C(F)(F)F)cc1" ) is 5.91

# pEC50 (molecule: "COc1ccc(C(=O)NC(=S)N2CCc3c(OCCCCCOc4ccc(Cl)cc4)cccc32)cc1" ) is 5.69

# pEC50 (molecule: "O=C(NC(=S)N1CCc2c(OCCCCCOc3ccc(Cl)cc3)cccc21)C1CCCCC1" ) is 4.37

# pEC50 (molecule: "O=C(NC(=S)N1CCc2c(OCCCCCOc3ccc(Cl)cc3)cccc21)c1ccsc1" ) is 5.99

# pEC50 (molecule: "O=C(NC(=S)N1CCc2c(OCc3ccccc3)cccc21)c1ccccc1" ) is 5.50

# pEC50 (molecule: "O=C(NC(=S)N1CCc2c(OCCCCCOc3ccc(Cl)cc3)cccc21)c1ccc(F)cc1" ) is 6.02

# pEC50 (molecule: "O=C(NC(=S)N1CCc2c(OCCCCCOc3ccc(Cl)cc3)cccc21)c1ccc(Cl)cc1" ) is 6.16

# pEC50 (molecule: "O=C(NC(=S)n1ccc2c(OCCCCCOc3ccc(Cl)cc3)cccc21)c1ccccc1" ) is 5.39

----------
experiment: Cytotoxicity against human HuH7 cells; assay type: cell-based, Huh-7
PARAMETER MEASURED: CC50 (µM)
Answer format: numeric, µM implied, no suffix.

Reference set, count: 4
N#Cc1cccc(C(=O)NC(=S)N2CCc3c(OCCCCCOc4ccc(Cl)cc4)cccc32)c1: 9.75
O=C(NC(=S)N1CCc2c(OCCCCCOc3ccc(Cl)cc3)cccc21)c1ccco1: 4.62
COc1ccc(C(=O)NC(=S)N2CCc3c(OCCCCCOc4ccc(Cl)cc4)cccc32)cc1: 34.4
NC(=S)n1ccc2c(OCCCCCOc3ccc(Cl)cc3)cccc21: 24.7

# CC50 (compound: "O=C(NC(=S)n1ccc2c(OCCCCCOc3ccc(Cl)cc3)cccc21)c1ccccc1" ) is 29.5

# CC50 (compound: "O=C(NC(=S)N1CCc2c(OCCCCCOc3ccc(Cl)cc3)cccc21)c1ccc(F)cc1" ) is 31.1

# CC50 (compound: "O=C(NC(=S)N1CCc2c(OCCCCCOc3ccc(Cl)cc3)cccc21)c1cccc([N+](=O)[O-])c1" ) is 12.1

# CC50 (compound: "O=C(NC(=S)N1CCc2c(OCCCCCOc3ccc(Cl)cc3)cccc21)c1ccno1" ) is 37.1

# CC50 (compound: "O=C(NC(=S)N1CCc2c(OCCCCCOc3ccc(Cl)cc3)cccc21)c1ccc(C(F)(F)F)cc1" ) is 32.7

Taken from ChEMBL document CHEMBL1152383.
